Measured values drawn from the supplement of paper PMC8728848 for this set.

target: Neu5Ac(b2-6)GalNAc; experiment: glycan array binding signal (z-score within array); higher = stronger binding; conditions: glycan notation: IUPAC condensed, linker removed
This excerpt belongs to a sample that is enriched for the strongest signals.
# glycan array binding signal (z-score) >= -0.4 gives 1, anything below gives 0

Task: Does the reported glycan array binding signal (z-score) for EULS2 M4 (Oryza sativa) (protein) MVYCRANPNYAMTARNGAVVLAPANPKDEYQHWIKDMRWSTSIKDEEGYPAFALVNKATGQAIKHSLGQSHPVRLVPYNPEVMDESVLWTESRDVGNGFRCIRMVNNIYLNFDAFHGDKYHGGVRDGTDIVLWKWCEGDSLRWKIQPYYILEQKLISEEDLNSAVDHHHHHH fall at or above the -0.4 mark?
Output: 1

Task: Does the reported glycan array binding signal (z-score) for SynCAM (Mus musculus) (protein) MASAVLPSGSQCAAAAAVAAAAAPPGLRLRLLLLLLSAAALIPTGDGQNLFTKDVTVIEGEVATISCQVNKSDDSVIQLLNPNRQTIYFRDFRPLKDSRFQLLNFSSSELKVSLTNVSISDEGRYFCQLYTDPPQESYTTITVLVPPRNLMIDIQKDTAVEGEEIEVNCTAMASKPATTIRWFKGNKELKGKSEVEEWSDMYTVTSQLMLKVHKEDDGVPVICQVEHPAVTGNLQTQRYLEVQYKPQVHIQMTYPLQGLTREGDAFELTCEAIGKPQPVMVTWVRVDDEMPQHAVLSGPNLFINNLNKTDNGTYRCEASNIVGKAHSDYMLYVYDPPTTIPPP fall at or above the -0.4 mark?
Output: 0

Task: Does the reported glycan array binding signal (z-score) for SP16663B-bot-321-25-321 (Bacteroides ovatus) (protein) DDDDEVTMNSKFYLSTKVFPVDSYEASLSVILKDNSVVVNELQPNYRFVACATERLSKDVKITADSDDNLVSAYNKANDTEYNILPAENYSFTNKTVTIENGESVSGDSIKIELLNVGSLTTEGGYLLPVTISSIEGNNLDALSSNRGVVYLKIQNIHVNVESGQPAEGTLIADRSGWTVKVAPTTRGDAKNLIDGTNSDVARDGGAEYWLTVDIGKVQTLTGIRNKCYASSYSPTAVEVFTSSDGAKWKSIGAVTISKSGTQYIKFSKAVETRYLKYYVKQGPNTVSLTEFDLYAK fall at or above the -0.4 mark?
Output: 0

Task: Does the reported glycan array binding signal (z-score) for Langerin K299A/K313A (Homo sapiens), Q9UJ71 (protein) STLNAQIPELKSDLEKASALNTKIRALQGSLENMSKLLKRQNDILQVVSQGWKYFKGNFYYFSLIPKTWYSAEQFCVSRNSHLTSVTSESEQEFLYKTAGGLIYWIGLTKAGMEGDWSWVDDTPFNKVQSARFWIPGEPNNAGNNEHCGNIAAPSLQAWNDAPCDATFLFICKRPYVPSEP fall at or above the -0.4 mark?
Output: 0

Task: Does the reported glycan array binding signal (z-score) for HHL-1 (Homo sapiens), P07306 (protein) TKEYQDLQHLDNEESDHHQLRKGPPPPQPLLQRLCSGPRLLLLSLGLSLLLLVVVCVIGSQNSQLQEELRGLRETFSNFTASTEAQVKGLSTQGGNVGRKMKSLESQLEKQQKDLSEDHSSLLLHVKQFVSDLRSLSCQMAALQGNGSERTCCPVNWVEHERSCYWFSRSGKAWADADNYCRLEDAHLVVVTSWEEQKFVQHHIGPVNTWMGLHDQNGPWKWVDGTDYETGFKNWRPEQPDDWYGHGLGGGEDCAHFTDDGRWNDDVCQRPYRWVCETELDKASQEPPLL fall at or above the -0.4 mark?
Output: 0

Task: Does the reported glycan array binding signal (z-score) for AT5G01260(PC)(40) (Arabidopsis thaliana), Q9LFB0 (protein) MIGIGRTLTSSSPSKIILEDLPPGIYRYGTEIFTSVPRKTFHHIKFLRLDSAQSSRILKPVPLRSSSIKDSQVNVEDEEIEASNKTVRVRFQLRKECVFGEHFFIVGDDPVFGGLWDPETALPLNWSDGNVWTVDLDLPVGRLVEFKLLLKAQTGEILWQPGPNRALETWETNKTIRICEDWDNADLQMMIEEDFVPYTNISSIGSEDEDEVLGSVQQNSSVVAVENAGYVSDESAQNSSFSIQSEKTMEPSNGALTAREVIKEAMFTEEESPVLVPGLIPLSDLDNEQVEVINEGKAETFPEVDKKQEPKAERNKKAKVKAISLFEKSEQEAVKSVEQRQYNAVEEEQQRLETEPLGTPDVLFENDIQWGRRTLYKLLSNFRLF fall at or above the -0.4 mark?
Output: 0

Task: Does the reported glycan array binding signal (z-score) for Gal 4 (Homo sapiens), Q8K419 (protein) MAYVPAPGYQPTYNPTLPYKRPIPGGLSVGMSVYIQGMAKENMRRFHVNFAVGQDDGADVAFHFNPRFDGWDKVVFNTMQSGQWGKEEKKKSMPFQKGKHFELVFMVMPEHYKVVVNGNSFYEYGHRLPVQMVTHLQVDGDLELQSINFLGGQPAAAPYPGAMTIPAYPAGSPGYNPPQMNTLPVMTGPPVFNPRVPYVGALQGGLTVRRTIIIKGYVLPTARNFVINFKVGSSGDIALHLNPRIGDSVVRNSFMNGSWGAEERKVAYNPFGPGQFFDLSIRCGMDRFKVFANGQHLFDFSHRFQAFQMVDTLEINGDITLSYVQI fall at or above the -0.4 mark?
Output: 1
